test description: Plasma pharmacokinetics in sheep (release of R-100 from R-107), LCMS
Type: in vivo
test conditions: plasma, IV neat R-107 25 mg/kg over 10 minutes, 0.1 hrs post dose
Description: In the following two experiments, the pharmacokinetic of releasing R-100 from R-107, via R-105 that is the reduced form of R-100, was studied in vivo according to the protocol described herein. 100 μl aliquots plasma obtained from R-107-treated sheep or pig were thawed and 200 μl ice-cold ethanol was added to each 100 μl sample to precipitate protein. […] The concentration of R-107 was measured in this sample as was the concentration of R105. […]
parameter measured: concentration at 0.1 h (µg/mL)
API: value field is a number in µg/mL; no unit string.

Incoming: Check the records and state concentration at 0.1 h for CC(=O)ON1C(C)(C)CC(CO[N+](=O)[O-])C1(C)C (stereo not shown) [R-107]
Outgoing: 5.5
